STUDY_SYSTEM: T1, 4H906-bH
T1 chain: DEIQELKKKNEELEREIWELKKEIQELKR
PROTOCOL_DETAILS: two-hybrid library CCNG1;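 note: natural log of median RNA to DNA barcode read ratio; higher means stronger binding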
ENDPOINT: interaction score

>>> measured_number("DKNQELKKENEELKRKIWELKKEIQELER [4H3817-bH]")
-0.699
>>> measured_number("DKNQELEKKNEELEREIWELEKKIQELKR [4H3462-bH]")
0.0503
>>> measured_number("DEIQELKKEIEELKRKIWELKKENQELER [4H619-bH]")
-0.349
>>> measured_number("DENQELKKKNEELKREIWELEKEIQELER [4H1985-bH]")
-0.874
>>> measured_number("DEIQELKKKNEELEREIWELKKEIQELKR [4H906-bH]")
0.905
>>> measured_number("DKNQELEKEIEELKRKIWELEKENQELKR [4H3172-bH]")
-0.821
>>> measured_number("DEIQELKKEIEELKREIWELKKKNQELER [4H591-bH]")
-0.784
